kcat · Km^-1 listing for selected binders.
ASSAY TARGET: T1, succinyl-L-alanyl-L-alanyl-L-prolyl-L-phenylalanyl-p-nitroanilide
T1 sequence (peptide, N-terminal succinyl; C-terminal p-nitroanilide): AAPF
Hi! Could you send only the number? It should be in M⁻¹ s⁻¹, unit omitted.

BLAP mutant F54 (S3T + V4I + R99G + A188P + V193M + V199I + L211D) (enzyme) AQTIPWGISRVQAPAAHNRGLTGSGVKVAVLDTGISTHPDLNIRGGASFVPGEPSTQDGNGHGTHVAGTIAALNNSIGVLGVAPSAELYAVKVLGADGGGAISSIAQGLEWAGNNGMHVANLSLGSPSPSATLEQAVNSATSRGVLVVAASGNSGASSISYPARYANAMAVGATDQNNNRASFSQYGPGLDIMAPGVNIQSTYPGSTYASDNGTSMATPHVAGAAALVKQKNPSWSNVQIRNHLKNTATSLGSTNLYGSGLVNAEAATR	1300

IN: Annotate the binder BLAP mutant F46 (S3T + V4I + S154E + A188P + V193M + V199I) (enzyme) AQTIPWGISRVQAPAAHNRGLTGSGVKVAVLDTGISTHPDLNIRGGASFVPGEPSTQDGNGHGTHVAGTIAALNNSIGVLGVAPSAELYAVKVLGADGRGAISSIAQGLEWAGNNGMHVANLSLGSPSPSATLEQAVNSATSRGVLVVAASGNEGASSISYPARYANAMAVGATDQNNNRASFSQYGPGLDIMAPGVNIQSTYPGSTYASLNGTSMATPHVAGAAALVKQKNPSWSNVQIRNHLKNTATSLGSTNLYGSGLVNAEAATR with its measured kcat · Km^-1.
OUT: 179000

IN: Output measured kcat · Km^-1 for this item: BLAP mutant F43 (S3T + V4I + R99G + A188P + V193M + V199I) (enzyme) AQTIPWGISRVQAPAAHNRGLTGSGVKVAVLDTGISTHPDLNIRGGASFVPGEPSTQDGNGHGTHVAGTIAALNNSIGVLGVAPSAELYAVKVLGADGGGAISSIAQGLEWAGNNGMHVANLSLGSPSPSATLEQAVNSATSRGVLVVAASGNSGASSISYPARYANAMAVGATDQNNNRASFSQYGPGLDIMAPGVNIQSTYPGSTYASLNGTSMATPHVAGAAALVKQKNPSWSNVQIRNHLKNTATSLGSTNLYGSGLVNAEAATR
OUT: 99000
